testProtocol: in vitro
conditionLabel: African green monkey
experimentalEndpoint: CC50 (µg/mL)
Write the value in µg/mL as a bare number.

Q. Can you share its CC50? I mean this molecule: COc1cc(/C=C/C(=O)O)cc(OC)c1O
A. 196

###

testProtocol: Equilibrium (saturated) solubility of SA in oils, surfactants and cosurfactants (isothermal method)
Format: physicochemical
conditionLabel: Labrasol, thermodynamic from solid, in Labrasol, room temperature, read-out: Saturated solubility of sinapic acid
experimentalEndpoint: solubility at 3 days (mg/mL)
Give a bare numeral; the unit mg/mL is implied.

Q. Which measured solubility at 3 days value corresponds to COc1cc(/C=C/C(=O)O)cc(OC)c1O [Sinapic acid] ?
A. 60.4
